# TEST TARGET: SFRP-1 (Homo sapiens)
# TEST DETAILS: Cell-based assay for in vitro measurement of SFRP-1/SARP2 antagonist activity (U2OS cells co-transfected with 16x TCF-tk-Luciferase reporter, Wnt and hSFRP-1)
# ASSAY CONTEXT: U2OS, read-out: Fold Induction with SFRP-1, Conc 15 μM; single dose; luciferase reporter, fold induction over SFRP-1 control; cells with SFRP-1
RECORDED ENDPOINT: fold induction at 15 µM

>  <COMPOUND>
CCc1nccn1CCNS(=O)(=O)c1cc(S(=O)(=O)c2ccc(F)cc2)ccc1C(C)C [Example 584]

>  <RECORDED ENDPOINT>
fold induction at 15 µM

>  <RESULT>
3.4

$$$$
>  <COMPOUND>
Cc1c(S(=O)(=O)NCCN2CCOCC2)cccc1S(=O)(=O)c1ccccc1 [Example 495]

>  <RECORDED ENDPOINT>
fold induction at 15 µM

>  <RESULT>
1.1

$$$$
>  <COMPOUND>
CC(C)c1cc(C(C)C)c(S(=O)(=O)c2ccccc2)cc1S(=O)(=O)NC1Cc2ccccc2C1 [Example 618]

>  <RECORDED ENDPOINT>
fold induction at 15 µM

>  <RESULT>
2.8

$$$$
>  <COMPOUND>
CCCc1ccc(S(=O)(=O)c2ccc(F)cc2)cc1S(=O)(=O)NCCc1ccccn1 [Example 564]

>  <RECORDED ENDPOINT>
fold induction at 15 µM

>  <RESULT>
3.3

$$$$
>  <COMPOUND>
CC(C)c1ccc([S+]([O-])c2ccccc2)cc1S(=O)(=O)NCCc1ccccn1 (centres unmarked) [Example 575]

>  <RECORDED ENDPOINT>
fold induction at 15 µM

>  <RESULT>
2.6

$$$$
>  <COMPOUND>
CC(C)c1ccc(S(=O)(=O)c2cccc(C#N)c2)cc1S(=O)(=O)NCCc1ccccn1 [Example 539]

>  <RECORDED ENDPOINT>
fold induction at 15 µM

>  <RESULT>
2.9

$$$$
>  <COMPOUND>
CC(C)c1cc(C(C)C)c(S(=O)(=O)c2ccccc2)cc1S(=O)(=O)NCCCn1ccnc1 [Example 615]

>  <RECORDED ENDPOINT>
fold induction at 15 µM

>  <RESULT>
1.7

$$$$
>  <COMPOUND>
Cc1ccc(S(=O)(=O)c2ccccc2)cc1S(=O)(=O)NC1CCN(C(=O)c2cccs2)CC1 [Example 497]

>  <RECORDED ENDPOINT>
fold induction at 15 µM

>  <RESULT>
2.4

$$$$

* * *

# TEST TARGET: SFRP-1 (Homo sapiens, UniProt Q8N474)
# Sequence (Q8N474 32-314): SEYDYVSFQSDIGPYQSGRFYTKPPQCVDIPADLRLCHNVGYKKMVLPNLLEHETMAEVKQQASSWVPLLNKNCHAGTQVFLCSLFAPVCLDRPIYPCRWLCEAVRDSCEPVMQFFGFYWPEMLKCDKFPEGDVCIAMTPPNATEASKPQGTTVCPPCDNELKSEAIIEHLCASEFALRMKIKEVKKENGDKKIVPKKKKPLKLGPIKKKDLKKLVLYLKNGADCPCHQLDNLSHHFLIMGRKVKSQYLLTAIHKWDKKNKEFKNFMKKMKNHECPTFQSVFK
# TEST DETAILS: Cell-based assay for in vitro measurement of SFRP-1/SARP2 antagonist activity (U2OS cells co-transfected with 16x TCF-tk-Luciferase reporter, Wnt and hSFRP-1);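 note: U2OS cells co-transfected with a TCF-tk luciferase reporter, a Wnt vector, hSFRP-1 or empty vector and CMV-βgal, luciferase luminescence read in cell lysates alongside βgal activity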
Doc: threshold 1000 nM (exclusive). Items with EC50 beneath it return 1; others return 0.

>  <COMPOUND>
O=C(O)c1cccc(-c2cccc(CNS(=O)(=O)c3cc(S(=O)(=O)c4ccccc4)ccc3C(F)(F)F)c2)c1

>  <CATEGORY>
0

$$$$
>  <COMPOUND>
C[C@@H](CO)NS(=O)(=O)c1cc(S(=O)(=O)c2ccccc2)ccc1C(F)(F)F

>  <CATEGORY>
0

$$$$
>  <COMPOUND>
C[C@@H](C(N)=O)N1CCC(NS(=O)(=O)c2cc(S(=O)(=O)c3ccccc3)ccc2C(F)(F)F)CC1

>  <CATEGORY>
1

$$$$
>  <COMPOUND>
NCCCNS(=O)(=O)c1cc(S(=O)(=O)c2ccccc2)ccc1C(F)(F)F

>  <CATEGORY>
0

$$$$
>  <COMPOUND>
CC1(C)CC(NS(=O)(=O)c2cc(S(=O)(=O)c3ccccc3)ccc2C(F)(F)F)CC(C)(C)N1

>  <CATEGORY>
0

$$$$
>  <COMPOUND>
Cc1ccc(S(=O)(=O)c2ccccc2)cc1S(=O)(=O)NCCC(=O)NC(C)(C)C

>  <CATEGORY>
0

$$$$
>  <COMPOUND>
COc1cccc(S(=O)(=O)c2ccc(C(F)(F)F)c(S(=O)(=O)NCCc3cccnc3)c2)c1

>  <CATEGORY>
1

$$$$
>  <COMPOUND>
CN(CCNS(=O)(=O)c1cc(S(=O)(=O)c2ccccc2)ccc1C(F)(F)F)C(=O)N[C@H]1CCCNC1

>  <CATEGORY>
1

$$$$
>  <COMPOUND>
COC(=O)C1CCC(NS(=O)(=O)c2cc(S(=O)(=O)c3ccccc3)ccc2C(F)(F)F)CC1 (stereo not drawn)

>  <CATEGORY>
0

$$$$
>  <COMPOUND>
Cc1ccccc1NC(=S)N1CCC(NS(=O)(=O)c2cc(S(=O)(=O)c3ccc(F)cc3)ccc2C(C)C)CC1

>  <CATEGORY>
0

$$$$
>  <COMPOUND>
O=S(=O)(NCC(O)c1ccccc1)c1cc(S(=O)(=O)c2ccccc2)ccc1C(F)(F)F (stereo not drawn)

>  <CATEGORY>
1

$$$$
>  <COMPOUND>
CN(CCNS(=O)(=O)c1cc(S(=O)(=O)c2ccccc2)ccc1C(F)(F)F)C(=O)Nc1cccnc1

>  <CATEGORY>
0

$$$$
>  <COMPOUND>
CN1[C@@H]2CC[C@H]1CC(NS(=O)(=O)c1cc(S(=O)(=O)c3ccccc3)ccc1C(F)(F)F)C2 (relative stereo)

>  <CATEGORY>
0

$$$$
>  <COMPOUND>
Cc1cc2cc(S(=O)(=O)c3ccc(C(F)(F)F)c(S(=O)(=O)NC4CCNCC4)c3)ccc2n1C

>  <CATEGORY>
0

$$$$
>  <COMPOUND>
O=C(O)c1cccc(S(=O)(=O)N2CCCC2CCNS(=O)(=O)c2cc(S(=O)(=O)c3ccccc3)ccc2C(F)(F)F)c1 (stereo not drawn)

>  <CATEGORY>
0

$$$$
